# Test Target: purified αvβ5 receptor (Homo sapiens, UniProt P06756+P18084)
# Construct: purchased Chemicon CC1020
# Sequence (P06756 31-889 limits assumed): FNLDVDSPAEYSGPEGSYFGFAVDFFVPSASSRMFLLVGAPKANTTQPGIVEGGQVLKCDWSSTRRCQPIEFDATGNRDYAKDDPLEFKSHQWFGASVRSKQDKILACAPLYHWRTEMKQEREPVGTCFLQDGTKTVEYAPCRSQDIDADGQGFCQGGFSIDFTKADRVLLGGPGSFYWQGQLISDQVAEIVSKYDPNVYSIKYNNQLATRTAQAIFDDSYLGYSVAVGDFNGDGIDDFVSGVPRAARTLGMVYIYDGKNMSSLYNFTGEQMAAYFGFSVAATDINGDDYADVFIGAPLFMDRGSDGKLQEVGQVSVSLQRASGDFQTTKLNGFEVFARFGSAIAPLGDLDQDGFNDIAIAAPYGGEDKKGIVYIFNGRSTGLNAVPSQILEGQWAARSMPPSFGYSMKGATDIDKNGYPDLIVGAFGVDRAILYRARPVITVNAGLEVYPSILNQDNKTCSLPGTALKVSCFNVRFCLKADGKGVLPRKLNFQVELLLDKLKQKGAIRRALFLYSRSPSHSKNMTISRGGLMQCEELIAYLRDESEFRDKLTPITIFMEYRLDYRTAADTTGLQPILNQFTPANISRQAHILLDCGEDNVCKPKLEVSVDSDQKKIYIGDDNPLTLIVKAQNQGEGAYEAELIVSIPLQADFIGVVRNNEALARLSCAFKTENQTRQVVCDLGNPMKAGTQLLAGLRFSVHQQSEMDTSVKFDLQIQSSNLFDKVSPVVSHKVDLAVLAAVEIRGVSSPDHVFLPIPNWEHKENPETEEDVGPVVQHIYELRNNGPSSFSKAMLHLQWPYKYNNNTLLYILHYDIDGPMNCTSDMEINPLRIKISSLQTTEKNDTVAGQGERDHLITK
# Sequence (P06756 891-1048 partner limits assumed): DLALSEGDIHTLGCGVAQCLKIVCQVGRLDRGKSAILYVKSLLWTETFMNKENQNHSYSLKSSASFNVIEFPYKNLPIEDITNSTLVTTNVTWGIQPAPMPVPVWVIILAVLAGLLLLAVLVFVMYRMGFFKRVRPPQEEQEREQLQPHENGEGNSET
# Sequence (P18084 24-799): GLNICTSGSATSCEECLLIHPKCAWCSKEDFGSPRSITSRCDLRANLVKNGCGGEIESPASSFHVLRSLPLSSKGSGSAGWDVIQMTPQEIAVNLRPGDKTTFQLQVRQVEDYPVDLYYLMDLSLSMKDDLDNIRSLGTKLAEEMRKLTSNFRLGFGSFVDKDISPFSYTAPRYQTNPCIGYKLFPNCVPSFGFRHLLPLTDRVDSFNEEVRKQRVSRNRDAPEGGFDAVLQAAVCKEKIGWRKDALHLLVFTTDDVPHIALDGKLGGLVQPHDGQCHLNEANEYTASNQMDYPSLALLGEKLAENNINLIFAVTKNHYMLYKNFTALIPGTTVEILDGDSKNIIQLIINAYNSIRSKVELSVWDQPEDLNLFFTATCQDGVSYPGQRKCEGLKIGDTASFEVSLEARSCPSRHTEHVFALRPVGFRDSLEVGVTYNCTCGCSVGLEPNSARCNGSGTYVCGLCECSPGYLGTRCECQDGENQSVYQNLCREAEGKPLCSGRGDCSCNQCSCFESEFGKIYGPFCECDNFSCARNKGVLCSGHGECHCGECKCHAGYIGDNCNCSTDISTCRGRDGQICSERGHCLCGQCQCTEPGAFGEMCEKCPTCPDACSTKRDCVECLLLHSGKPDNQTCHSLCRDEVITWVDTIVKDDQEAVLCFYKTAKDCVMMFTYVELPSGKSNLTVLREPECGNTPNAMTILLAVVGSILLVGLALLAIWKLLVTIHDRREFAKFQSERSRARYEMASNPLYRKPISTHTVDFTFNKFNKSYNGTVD
# Method Summary: Binding to integrin αvβ5 receptors ([125I]echistatin competition)
# Condition Details: RGD peptides; [125I]echistatin 0.15 nM; read-out: αvβ5 IC50 ± SD
Endpoint: pIC50
Numbers only, as −log10 of the molar value.

For the compound `CN1C(=O)[C@@H](Cc2ccccc2)NC(=O)[C@H](CC(=O)O)NC(=O)CNC(=O)[C@H](CCCNC(=N)N)NC(=O)[C@@H]1Cc1ccc(CN)cc1` , give its reported pIC50.
9.05
